Biological target: Histamine H2 receptor (Cavia porcellus)
Sequence (P47747 whole entry): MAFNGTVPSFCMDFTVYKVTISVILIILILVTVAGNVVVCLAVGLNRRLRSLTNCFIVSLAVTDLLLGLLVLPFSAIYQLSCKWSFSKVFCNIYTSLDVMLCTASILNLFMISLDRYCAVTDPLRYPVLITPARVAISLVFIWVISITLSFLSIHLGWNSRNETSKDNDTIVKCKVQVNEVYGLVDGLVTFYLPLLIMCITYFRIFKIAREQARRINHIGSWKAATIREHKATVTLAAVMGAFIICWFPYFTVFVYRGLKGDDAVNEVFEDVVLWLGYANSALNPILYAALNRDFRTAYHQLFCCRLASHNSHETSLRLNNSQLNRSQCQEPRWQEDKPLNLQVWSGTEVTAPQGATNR
Assay: Functional H2 receptor antagonistic activity in vitro assay on the isolated spontaneously beating guinea-pig right atrium
Assay type: tissue-based, Cardiac atrium
Settings: read-out: pA2 (converted)
Consider the following compounds; for each one, report its Kb.
The answer is to be given in µM; state only the numeric part.

Challenge: // lookup Kb for "CCCCCCCCOCCCc1c[nH]cn1.O=C(O)/C=C\C(=O)O"
Response given: 2.51

Challenge: // lookup Kb for "O=C(O)/C=C\C(=O)O.c1nc(CCCOCCCC2CCCC2)c[nH]1"
Response given: 5.01

Challenge: // lookup Kb for "CCCCCCOCCCc1c[nH]cn1.O=C(O)/C=C\C(=O)O"
Response given: 10
